molecular target: HiBit-BRG1 fusion protein (Homo sapiens, UniProt P51532); construct: expressed in transfected cells; experiment: HiBiT-BRG1 cell-based degradation assay (Nano-Glo HiBiT Lytic Detection, 24 h); conditions: HeLa cells expressing HiBit-BRG1 and LgBit, read-out: BRG1 HiBit Degradation IC50
Sequence (P51532 whole entry, the tested form may be a part): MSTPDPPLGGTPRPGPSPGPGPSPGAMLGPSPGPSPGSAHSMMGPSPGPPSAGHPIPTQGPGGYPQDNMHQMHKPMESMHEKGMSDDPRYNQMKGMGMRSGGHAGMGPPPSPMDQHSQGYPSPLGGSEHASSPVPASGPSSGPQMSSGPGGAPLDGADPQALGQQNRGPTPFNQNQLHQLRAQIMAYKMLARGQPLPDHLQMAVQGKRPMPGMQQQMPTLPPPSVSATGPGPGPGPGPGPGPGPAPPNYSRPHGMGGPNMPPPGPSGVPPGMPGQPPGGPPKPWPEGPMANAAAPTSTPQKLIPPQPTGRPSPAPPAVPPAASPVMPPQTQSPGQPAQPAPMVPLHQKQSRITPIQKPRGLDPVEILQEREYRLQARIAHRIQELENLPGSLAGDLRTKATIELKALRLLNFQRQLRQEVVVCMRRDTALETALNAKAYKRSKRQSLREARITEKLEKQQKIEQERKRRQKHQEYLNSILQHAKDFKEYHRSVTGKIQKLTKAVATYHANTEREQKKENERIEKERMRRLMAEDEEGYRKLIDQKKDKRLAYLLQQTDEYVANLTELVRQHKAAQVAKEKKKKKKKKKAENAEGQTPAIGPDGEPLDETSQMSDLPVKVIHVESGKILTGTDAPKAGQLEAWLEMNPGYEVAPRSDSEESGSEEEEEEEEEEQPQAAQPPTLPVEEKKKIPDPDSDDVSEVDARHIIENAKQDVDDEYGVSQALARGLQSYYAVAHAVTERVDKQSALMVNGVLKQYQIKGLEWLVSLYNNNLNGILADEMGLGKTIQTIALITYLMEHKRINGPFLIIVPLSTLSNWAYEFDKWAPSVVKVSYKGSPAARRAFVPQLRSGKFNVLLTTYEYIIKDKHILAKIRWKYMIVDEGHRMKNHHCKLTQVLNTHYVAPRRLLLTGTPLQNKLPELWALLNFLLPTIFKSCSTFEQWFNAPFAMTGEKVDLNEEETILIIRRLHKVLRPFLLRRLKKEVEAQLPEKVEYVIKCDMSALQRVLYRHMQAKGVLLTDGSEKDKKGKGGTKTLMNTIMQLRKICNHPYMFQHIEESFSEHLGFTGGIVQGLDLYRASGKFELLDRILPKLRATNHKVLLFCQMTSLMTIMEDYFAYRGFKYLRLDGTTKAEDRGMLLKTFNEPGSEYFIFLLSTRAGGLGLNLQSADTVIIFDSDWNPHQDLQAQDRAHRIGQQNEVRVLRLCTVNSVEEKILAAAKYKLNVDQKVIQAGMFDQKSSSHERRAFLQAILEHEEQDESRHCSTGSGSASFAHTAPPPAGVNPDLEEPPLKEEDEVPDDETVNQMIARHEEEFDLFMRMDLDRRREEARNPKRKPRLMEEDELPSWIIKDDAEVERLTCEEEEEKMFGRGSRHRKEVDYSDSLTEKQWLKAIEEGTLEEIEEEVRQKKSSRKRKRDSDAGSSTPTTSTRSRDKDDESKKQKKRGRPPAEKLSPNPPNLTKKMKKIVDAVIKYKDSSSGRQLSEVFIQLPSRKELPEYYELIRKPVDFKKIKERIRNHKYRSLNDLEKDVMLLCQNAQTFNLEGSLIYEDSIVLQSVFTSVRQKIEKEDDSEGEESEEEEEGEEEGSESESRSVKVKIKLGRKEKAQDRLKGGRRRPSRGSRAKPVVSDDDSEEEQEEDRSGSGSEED
test readout: DC50

A selection of reference data follows.
molecule=Cc1ncsc1-c1ccc(CNC(=O)[C@@H]2C[C@@H](O)CN2C(=O)[C@@H](NC(=O)CCCCC(=O)NCCCC[C@H](NC(=O)c2ccn(S(C)(=O)=O)c2)C(=O)Nc2nc(-c3ccccc3)cs2)C(C)(C)C)cc1 test_readout=DC50 test_value="> 10 µM"
molecule=Cc1ncsc1-c1ccc(CNC(=O)[C@@H]2C[C@@H](O)CN2C(=O)[C@@H](NC(=O)CCCCCCCCCCCCC(=O)NCc2cccc(-c3cccc(-c4csc(NC(=O)CNC(=O)c5ccn(S(C)(=O)=O)c5)n4)c3)c2)C(C)(C)C)cc1 test_readout=DC50 test_value="0.1 to 1 µM"

# context switch: different molecule, same DC50
Quick check: DC50 of CS(=O)(=O)n1ccc(C(=O)NCC(=O)Nc2nc(-c3cccc(-c4ccnc(N5CCN(C(=O)CCCOc6cccc7c6C(=O)N(C6CCC(=O)NC6=O)C7=O)CC5)c4)c3)cs2)c1 (stereo not drawn) ? > 10 µM
